MEASUREMENT_DESCRIPTION: NCI Yeast Anticancer Drug Screen. Data for the sgs1 mgt1 strain (AID 161);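 further: 0% = growth of cultures given vehicle only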
MEASUREMENT_PARAMETERS: S. cerevisiae sgs1 mgt1 strain, at 5.0 µM (retest, dose inferred, filed as 0.5), hits give high values
Compounds without any hit were thinned out: in the full panel of roughly 79,000, 15% have a hit. Calls of active or inactive are those of the source. No stated cut-off is given here; in the data, active means growth inhibition above about 70%; inactive means the rest.
Overview of reported growth inhibition across a group of compounds:

See these solved cases before continuing.
Cc1cc(N2C(=O)CCSC2=S)ccc1Cl; 48% (inactive)
O=C(CBr)N1c2ccccc2S(=O)(=O)c2ccc3ccccc3c21; 66% (inactive)
C=C1CC23CCC4C(C)(C(=O)O)CCCC4(C)C2CCC1C3 (stereo not given); 18% (inactive)
CC(=O)O[C@H]1CC[C@@]2(C)C(CC[C@]3(C)C2CC=C2[C@@H]4CC(C)(C)CC[C@]4(C(=O)NCCN(C)C)CCC23C)C1(C)C (stereo not given in full); -2% (inactive)
Cc1ccc[n+](CC(=O)C2CCC3CC4CCCCC4CC3C2)c1 (stereo not given); -27% (inactive)
O=C(/C(=C\c1ccccc1)c1ccccc1)c1ccc(Br)cc1; 4% (inactive)

growth inhibition lookup needed for CSc1nc(NC2OC(CO)C(O)C(O)C2O)c(Cl)c(=O)[nH]1 (stereo not given) , thanks.
-2% (inactive)

What does the data say about its growth inhibition? Entry: `C1=C(C2=C[P+](c3ccccc3)(c3ccccc3)C=C(c3ccccc3)O2)OC(c2ccccc2)=C[P+]1(c1ccccc1)c1ccccc1`
5% (inactive)

What measured growth inhibition goes with `CC(=O)OCC(C(N)=O)(c1ccccc1)c1ccccc1` ?
-1% (inactive)

What value of growth inhibition has been reported for the following compound? O=C1OC2(CCCC2)OC1c1ccccc1 (stereo not given)
-2% (inactive)

###

MEASUREMENT_DESCRIPTION: NCI Yeast Anticancer Drug Screen. Data for the mec2-1 strain (AID 157)
MEASUREMENT_PARAMETERS: S. cerevisiae mec2-1 strain, at 50.0 µM
This is part of a sample that, as a whole, favours compounds with a hit. Of some 79,000 tested, about 15% had one in any assay. Active and inactive are the calls of the source. Rule as the data show it: active = growth inhibition above about 70%; inactive = the rest.
Respond using exactly one of the listed classes: active, inactive

O=C(Nc1ccc(Cl)cc1)Nc1nnc(/C=C/c2ccc(Cl)c(Cl)c2)o1; inactive
CCOC(=O)C1(C#N)C(c2ccccc2)C1(C#N)C#N (stereo not drawn); active
CC(C)(CC#N)c1cc(CC(C)(C)c2cc(CC(C)(C)c3cc(CC(C)(C)C4(C)OCCO4)no3)no2)no1; inactive
S=C(Nc1ccc2cn[nH]c2c1)Nc1ccc2cn[nH]c2c1; inactive
CCOC(=O)c1sc2[n+](c1C)C(=O)/C(=C/c1ccc([N+](=O)[O-])cc1)S2; active
O=C(Oc1ccccc1)C1CCCCC1C(=O)Oc1ccccc1 (stereo not drawn); inactive
S=c1[nH]c2cc(Cl)ccc2s1.[Zn+2]; active
COc1ccc(-c2nnc(C)nc2-c2ccc(OC)cc2)cc1; inactive

Kindly provide the recorded test outcome for the following compound: `CCc1ccc(N(C(C)=O)C2=C(Cl)C(=O)c3ccccc3C2=O)cc1`
active

Identify the outcome logged in this assay for the compound shown: `CC1=C(C(=O)Nc2ccccc2)C(c2cc(Cl)cc(Cl)c2)C(C(=O)Nc2ccccc2)=C(C)N1`
active

###

MEASUREMENT_DESCRIPTION: NCI Yeast Anticancer Drug Screen. Data for the cln2 rad14 strain (AID 165);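 further: 0% = growth equal to vehicle treated cultures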
MEASUREMENT_PARAMETERS: S. cerevisiae cln2 rad14 strain, at 50.0 µM (retest, dose inferred, filed as 5.0), hits give high values
This is part of a sample that, as a whole, favours compounds with a hit. Of some 79,000 tested, about 15% had one in any assay.
The following compounds are shown together with reported growth inhibition values.
The reply should be a number in %, with the unit left off.

Example results:
CCOC(=O)C(C(=O)OCC)c1ccc([N+](=O)[O-])o1; 79
C=Nc1ccc2ccccc2c1Cc1c(O)ccc2ccccc12; 99
NC(=O)C(CCc1cccc2ccccc12)c1ccccc1 (stereo unspecified); -3
OCCSCc1cc(Cl)cc(Cl)c1O; 44
CCCC(=O)c1cc(O)c(O)c(CN(C)Cc2cc(Cl)cc(C)c2O)c1O; 90

Then this compound:
Reported growth inhibition for COc1ccc(-c2cc(-c3ccc4c(c3)CC(C)O4)nc(N)n2)cc1 (stereo unspecified) : what is it?
15

###

MEASUREMENT_DESCRIPTION: NCI Yeast Anticancer Drug Screen. Data for the sgs1 mgt1 strain (AID 161);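 further: 0% = growth of cultures given vehicle only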
MEASUREMENT_PARAMETERS: S. cerevisiae sgs1 mgt1 strain, at 50.0 µM (retest, dose inferred, filed as 5.0)
Compounds without any hit were thinned out: in the full panel of roughly 79,000, 15% have a hit. Active and inactive are the calls of the source. Cut-off read from the data, not from the text of the source: active = growth inhibition above about 70%; inactive = the rest.
Log the outcome using a class from true (1) for active, false (0) for inactive

Record excerpt, results attached:
COc1cc(/C=C/C(=N\NC(=O)c2ccccc2)c2sc(Nc3ccc(Cl)c(Cl)c3)nc2C)ccc1O; false (0)
CC(CCCN(C)Cc1ccccc1)Nc1ccnc2cc(Cl)ccc12 (stereo unspecified); true (1)
CCCCN1CSC(=S)N(Cc2ccccc2)C1; false (0)
CCOC(=O)c1sc2c(c1O)c(=O)n(-c1ccccc1)c(=S)n2-c1ccccc1; true (1)

Call for entry `CCCN1CCN(c2ccc([N+](=O)[O-])c3no[n+]([O-])c23)CC1` :
true (1)

Dear all, I need the recorded test outcome for COC(=O)C1(Cc2ccccc2C)Cc2ccc(C)cc2C1=O (stereo unspecified) , thank you.
false (0)

###

MEASUREMENT_DESCRIPTION: NCI Yeast Anticancer Drug Screen. Data for the rad50 strain (AID 155);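 further: 0% = growth of vehicle-only cultures of the same strain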
MEASUREMENT_PARAMETERS: S. cerevisiae rad50 strain growth inhibition; at 50.0 µM (retest, dose inferred, filed as 5.0)
Method: Growth inhibition of yeast strains with defined genetic alterations is measured as a screen for potential anti-cancer activity. Selected strains with alterations in DNA damage repair or cell cycle control were exposed to compounds and growth inhibition was measured relative to vehicle treated controls. The strain used in this assay is rad50
The panel holds about 79,000 compounds, 15% with a hit somewhere; the sample as a whole holds those more often. Calls of active or inactive are those of the source. Cut-off read from the data, not from the text of the source: active = growth inhibition above about 70%; inactive = the rest.
Log the outcome using a class from class 1 = active, class 0 = inactive

Illustrative cases are given below, each with its answer.
O=C(Oc1c([N+](=O)[O-])cc(-c2ccc([N+](=O)[O-])cc2)cc1[N+](=O)[O-])c1ccccc1; class 0
O=C(Nc1ccc(Cl)cc1)c1cccc([N+](=O)[O-])c1O; class 0
O=C(N/N=C/c1cc(Cl)cc(Cl)c1O)c1ccccc1; class 0

Given `Oc1cc(Br)cc2cccnc12` , state the outcome it received in this test.
class 1

Short answer needed: outcome of this test for CC(C)C(CC(C)(C)C)OC(=O)Nc1cccc2ccccc12 (stereo unspecified) ?
class 1

Test call for this compound, please: `O=C(O)/C=C/c1ccc2c(c1)CCCC2`
class 1

###

MEASUREMENT_DESCRIPTION: NCI Yeast Anticancer Drug Screen. Data for the cln2 rad14 strain (AID 165);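 further: 0% = growth equal to vehicle treated cultures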
MEASUREMENT_PARAMETERS: S. cerevisiae cln2 rad14 strain, at 50.0 µM (retest, dose inferred, filed as 5.0), hits give high values
About 79,000 compounds went through this panel and 15% of them were active in at least one assay; those are over-represented in the sample as a whole.
Parameter class (string): assigned from measured growth inhibition. Ranges: category 1 (below 30%), category 2 (30% to below 80%), category 3 (80% or more)

// below: answered compounds
CN(C)CC/C(=N\Nc1ccc(Cl)cc1Cl)c1ccccc1; category 3
Cc1ccc(SCc2ccccc2Cl)nn1; category 1
CC1(C(=O)O)CCC2(C)CCC3(C)C(=CC(=O)C4C5(C)CCC(O)C(C)(C)C5CCC43C)C2C1 (stereo not drawn); category 3

Using the reported growth inhibition, which band applies to CC(CN(C)C)C(/C=C/c1ccc(Cl)cc1)=N\NC(=O)c1ccccc1 (stereo not drawn) ?
category 1

Pick a category. Item: `OC(C/C(=N\N=C(/CC(O)(C(F)(F)F)C(F)(F)F)c1ccccc1)c1ccccc1)(C(F)(F)F)C(F)(F)F`
category 1

Categorize the following entry: CCCCCCCCCCCCCCNC(=O)CCC(NC(=O)c1ccc(N(C)Cc2cnc3nc(N)nc(N)c3n2)cc1)C(=O)NCCCCCCCCCCCCCC (stereo not drawn)
category 2

Looking at `O=C(Nn1c(=O)c(=O)oc2ccccc21)C(F)(F)F` , which class would you pick?
category 3

###

MEASUREMENT_DESCRIPTION: NCI Yeast Anticancer Drug Screen. Data for the cln2 rad14 strain (AID 165);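 further: 0% = growth equal to vehicle treated cultures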
MEASUREMENT_PARAMETERS: S. cerevisiae cln2 rad14 strain, at 50.0 µM (retest, dose inferred, filed as 5.0), hits give high values
Compounds without any hit were thinned out: in the full panel of roughly 79,000, 15% have a hit. Active and inactive are the calls of the source. No stated cut-off is given here; in the data, active means growth inhibition above about 70%; inactive means the rest.
In this section we review reported growth inhibition values for a set of compounds.

Solved cases below.
O=C1NC(=O)c2cccc3cccc1c23; 20% (inactive)
CN(C)c1ccc(SC(=S)NCc2ccccc2)cc1; 28% (inactive)
O=C(Oc1ccc(O)c2ccccc12)c1ccccc1; -5% (inactive)
COC(=O)C1(Cc2ccccc2C)Cc2ccc(C)cc2C1=O (configuration not stated); 4% (inactive)
O=C1/C(=C/c2ccc([N+](=O)[O-])cc2)Sc2scc(-c3cccc([N+](=O)[O-])c3)[n+]21; 98% (active)

Which growth inhibition is listed for `O=[N+]([O-])c1ccc2c(c1)N([O-])C1(CCCCC1)[N+]2=O` ?
98% (active)

Quick one: growth inhibition for `Cc1c(N=Nc2ccccc2Cl)c(-c2ccccc2)nn1C(=S)S` ?
92% (active)

If you can, please state the reported growth inhibition value of `O=C(O)Cc1ccc2ccccc2c1-c1ccccc1` .
98% (active)
